Provenance of the data: PubChem BioAssay (NCI)

- Tested on: SR leukemia
- experiment-summary: NCI-60 one-dose screen, 48 h (100 = growth as untreated, 0 = no growth, -100 = all killed)
- details: 10 µM unless noted
This is part of a sample that, as a whole, favours compounds with a hit. Of some 83,000 tested, about 20% had one in any assay.
Rule: growth below 30% gives condition met, anything at or above gives condition not met.

// below: answered compounds
>  <compound>
CC1=C(SCCC(=O)OC(C[Se]C2=C(C)C(=O)c3ccccc3C2=O)C(=O)NC(C)(C)C)C(=O)c2ccccc2C1=O (stereo not drawn)

>  <target>
SR leukemia

>  <label-value>
condition met

$$$$
>  <compound>
Cc1cc2[nH]c(=O)c3c4ncccc4cn3c2cc1C

>  <target>
SR leukemia

>  <label-value>
condition met

$$$$
>  <compound>
COc1ccc(-c2nc(NCCO)[nH]c(=O)c2C#N)cc1

>  <target>
SR leukemia

>  <label-value>
condition not met

$$$$

Challenge: In plain terms, does CCCCn1c(-c2ccc(C(=O)O/N=C(\N)c3ccc(OC)cc3)cc2)nc(-c2ccccc2)c1-c1ccccc1 come in under 30% for growth?
Response given: condition met

Challenge: In plain terms, does Cc1ccccc1C(=O)NN come in under 30% for growth?
Response given: condition not met

Challenge: In plain terms, does COc1ccc(-c2nc3sc(-c4ccccc4)cn3n2)cc1 come in under 30% for growth?
Response given: condition not met

Challenge: In plain terms, does O=C(Nc1ccc(-c2nc(-c3cccc(OCCN4CCOCC4)c3)c(-c3ccnc(Br)c3)[nH]2)cc1)c1ccccc1 come in under 30% for growth?
Response given: condition met

Challenge: In plain terms, does COc1ccc(-c2nc(NN)c3c(C)nn(-c4ccc(F)cc4)c3n2)cc1 come in under 30% for growth?
Response given: condition met

###

Recorded growth values for a group of molecules are listed next.
- System: SN12C renal
- experiment-summary: NCI-60 one-dose screen, 48 h (100 = growth as untreated, 0 = no growth, -100 = all killed)
- details: 10 µM unless noted
The panel holds about 83,000 compounds, 20% with a hit somewhere; the sample as a whole holds those more often.
Kindly answer with a numeric value in %, unit omitted.

>  <molecule>
CNC(=O)c1[nH]cc(-c2ccccc2)c1-c1cc(OC)c2c(c1OC)OCO2

>  <unit-symbol>
%

>  <growth>
91.1

$$$$
>  <molecule>
COc1cc(C2CC(c3ccc(SC)cc3)=NN2C(C)=O)cc(OC)c1OC (stereo not drawn)

>  <unit-symbol>
%

>  <growth>
91.4

$$$$

Turning now to a further record.
Challenge: Request the reported growth associated with CCCCn1c(=O)c(-c2cc(-c3ccc(Cl)cc3)nc(-c3ccc(Cl)cc3)c2)cc2cc(Cl)ccc21
Response given: 91.2

###

- Tested on: UO-31 renal
- experiment-summary: NCI-60 one-dose screen, 48 h (100 = growth as untreated, 0 = no growth, -100 = all killed)
- details: 10 µM unless noted
The panel holds about 83,000 compounds, 20% with a hit somewhere; the sample as a whole holds those more often.
Quick rule: growth of at least 80% means Satisfied, below that means Not satisfied.

Challenge: Form field: growth at least 80%? Entry: COc1ccc([C@H]2c3cc(OC)c(OC)cc3C=C(C=O)C2CO)cc1OC (stereo not given in full)
Response given: Not satisfied

Challenge: Form field: growth at least 80%? Entry: O=C(O)CCC/C=C\C[C@H]1C=CC(=O)/C1=C/C[C@@H](O)CCc1cccc(C(F)(F)F)c1
Response given: Not satisfied

Challenge: Form field: growth at least 80%? Entry: COc1cc2cc(Oc3ccc(NC(=O)Nc4cc(C(F)(F)F)cc(C(F)(F)F)c4)cc3)c(C)nc2cc1OCCN1CCOCC1
Response given: Not satisfied

Challenge: Form field: growth at least 80%? Entry: O=c1c2cc(F)ccc2sc2c(N3CCNCC3)nc3ccc(F)cc3c12
Response given: Not satisfied

Challenge: Form field: growth at least 80%? Entry: Cc1onc2c(-c3ccccc3)n[nH]c(=O)c12
Response given: Satisfied

Challenge: Form field: growth at least 80%? Entry: Cc1ccc(C(=O)N/N=C/c2cccc([N+](=O)[O-])c2)cn1
Response given: Not satisfied
